# System: Zika virus NS2B-NS3 protease
# experiment-notes: Primary screen GU AMC qHTS for Zika virus inhibitors (AID 1347154);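 note: 0% = no-inhibitor control and -100% = no-enzyme control; nearly all actives have a fitted effect of over 70% in size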
# assay-context: Zika NS2B-NS3 unlinked protease, AMC fluorogenic substrate; series mostly up to 54.1 µM
Results filed as inconclusive are left out. Active and inactive are the calls of the source. Calls come from the whole dose curve; as a rule, active = well fitted inhibition curve with a large enough effect; inconclusive = small, poorly fitted or top-dose-only effect; inactive = flat fitted curve, though single readings scatter.
A correct response names exactly one class from active, inactive

Dear all, I need the recorded test outcome for "Cc1onc(-c2c(Cl)cccc2Cl)c1C(=O)N[C@@H]1C(=O)N2[C@@H]1SC(C)(C)[C@@H]2C(=O)O" , thank you. inactive

More entries:
Dear all, I need the recorded test outcome for "c1ccc(OCc2ccc(CCCN3CCOCC3)cc2)cc1" , thank you. inactive

// next record "CCCCS(=O)(=O)N[C@@H](Cc1ccc(OCCCCC2CCNCC2)cc1)C(=O)O" inactive

// next record COc1cc2c(cc1OC)C(=O)C(CC1CCN(Cc3ccccc3)CC1)C2 (centres undefined) inactive

// next record C[C@H]1[C@H](NC(=O)/C(=N/OC(C)(C)C(=O)O)c2csc(N)n2)C(=O)N1S(=O)(=O)O (stereo in doubt) inactive

// next record "COC(=O)C1=C(C)NC(C)=C(C(=O)O[C@@H]2CCCN(Cc3ccccc3)C2)[C@@H]1c1cccc([N+](=O)[O-])c1" inactive

// next record CCN(CCCCOC(=O)c1ccc(OC)c(OC)c1)C(C)Cc1ccc(OC)cc1 (centres undefined) inactive

// next record "CCOc1ccc(Cc2nccc3cc(OCC)c(OCC)cc23)cc1OCC" inactive

// next record "O=C(CCCN1CCC(O)(c2ccc(Br)cc2)CC1)c1ccc(F)cc1" inactive

// next record "COc1ccc(C2C(=O)c3ccccc3C2=O)cc1" inactive

----------
# experiment-notes: Cell Viability - LYMP2-003 (AID 965);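 note: cells exposed to compounds for 24 h before reading; nearly all actives have a fitted effect of over 50% in size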
# assay-context: LYMP2-003 lymphoblastoid cell viability; series mostly up to 92.2 µM
Results filed as inconclusive are left out. The source made the active and inactive calls. The call rests on the fitted dose curve; in most records, active means well fitted cell-killing curve with a large enough effect; inconclusive means small, poorly fitted or top-dose-only effect, or effect the other way; inactive means flat fitted curve, though single readings scatter.
A correct response names exactly one class from yes = active, no = inactive

Dear all, I need the recorded test outcome for "COc1cccc2c1C(=O)c1c(O)c3c(c(O)c1C2=O)C[C@@](O)(C(=O)CO)C[C@@H]3O[C@H]1C[C@H](N)[C@H](O)[C@H](C)O1" , thank you. yes

// next record "COc1cccc2c1C(=O)c1c(O)c3c(c(O)c1C2=O)C[C@@](O)(C(C)=O)C[C@@H]3O[C@H]1C[C@H](N)[C@H](O)[C@H](C)O1" yes

// next record "C[C@]12CC[C@@H]3c4ccc(O)cc4CC[C@H]3[C@@H]1CC[C@@H]2O" no

// next record "CN(C)/N=N/c1nc[nH]c1C(N)=O" no

// next record CC(O)C(=O)O (stereo not given) no

// next record "C=C(CC)C(=O)c1ccc(OCC(=O)O)c(Cl)c1Cl" yes

More entries:
Dear all, I need the recorded test outcome for "Nc1ccc(C(=O)O)cc1" , thank you. no

// next record "O=C1OC(c2ccc(O)cc2)(c2ccc(O)cc2)c2ccccc21" no

// next record "O=c1ccc2ccccc2o1" no

// next record "CC/C(=C(/CC)c1ccc(O)cc1)c1ccc(O)cc1" no

----------
# Tested on: DIV14
# experiment-notes: qHTS profiling for inhibitors of Plasmodium falciparum proliferation (AID 504749); note: nearly all actives have a fitted effect of over 60% in size
# assay-context: P. falciparum in erythrocytes, SYBR Green DNA, 72 h; series mostly up to 28.7 µM
Results filed as inconclusive are left out. Active and inactive are the calls of the source. Calls follow the shape of the dose curve; as a rule, active = well fitted inhibition curve with a large enough effect; inconclusive = small, poorly fitted or top-dose-only effect; inactive = flat fitted curve, though single readings scatter.
A correct response names exactly one class from active, inactive

Answered cases to consult:
Dear all, I need the recorded test outcome for "CCCCCCC[N+](CC)(CC)CCCCc1ccc(Cl)cc1" , thank you. active

// next record "Cc1cccn2c(=O)c(-c3nnn[nH]3)cnc12" inactive

// next record "COc1cccc2c1C(=O)c1c(O)c3c(c(O)c1C2=O)C[C@@](O)(C(C)=O)C[C@@H]3O[C@H]1C[C@H](N)[C@H](O)[C@H](C)O1" active

More entries:
Dear all, I need the recorded test outcome for c1ccc(-c2ccc(C(c3ccccc3)n3ccnc3)cc2)cc1 (stereo not given) , thank you. active

----------
# experiment-notes: qHTS assay for cell viability of HEK293 cells (AID 743288); note: % is set by controls: 0 for no effect and ±100 for the full control effect; nearly all actives have a fitted effect of over 50% in size
# assay-context: ATP luminescence (CellTiter-Glo), 18 h, stronger effect = lower value
Results filed as inconclusive are left out.
experimental-endpoint: max response (%)
Lab book: enter the figure in %, no units written.

Look over these answered cases.
What max response value was documented for this compound, "C[C@H]1C[C@H]2[C@@H]3CCC4=CC(=O)C=C[C@]4(C)[C@@]3(Cl)[C@@H](O)C[C@]2(C)[C@@]1(O)C(=O)CO" ? -18.8

// next record "CC(=O)Oc1ccc(C(c2ccc(OC(C)=O)cc2)c2ccccn2)cc1" -9.96

// next record "CC(C)(Oc1ccc(Cl)cc1)C(=O)O" -4.41

// next record "O=C(O)CCCCC(=O)O" 0.134

More entries:
What max response value was documented for this compound, "Oc1ccc(O)cc1" ? -28.2

// next record "COC1=CC(=O)C[C@@H](C)[C@]12Oc1c(Cl)c(OC)cc(OC)c1C2=O" -14.5

// next record "CC(O)(P(=O)(O)O)P(=O)(O)O" -5.92

// next record "Cc1cc(=O)n(-c2ccccc2)n1C" -2.36

// next record "CN(C)/N=N/c1nc[nH]c1C(N)=O" 4.22

----------
# experiment-notes: Cell Viability - H-4-II-E (AID 543);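 note: cells exposed to compound for 40 hours; nearly all actives have a fitted effect of over 35% in size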
# assay-context: H-4-II-E rat hepatoma viability; series mostly up to 92.2 µM
Records with an inconclusive call do not appear. Calls of active or inactive are those of the source. Calls come from the whole dose curve; as a rule, active = well fitted cell-killing curve with a large enough effect; inconclusive = small, poorly fitted or top-dose-only effect; inactive = flat fitted curve, though single readings scatter.
A correct response names exactly one class from active, inactive

Answered cases to consult:
Dear all, I need the recorded test outcome for "COC1=CC(=O)C[C@@H](C)[C@]12Oc1c(Cl)c(OC)cc(OC)c1C2=O" , thank you. active

// next record "COc1cccc2c1C(=O)c1c(O)c3c(c(O)c1C2=O)C[C@@](O)(C(C)=O)C[C@@H]3O[C@H]1C[C@H](N)[C@H](O)[C@H](C)O1" active

// next record "CCCCCCc1ccc(O)cc1O" inactive

More entries:
Dear all, I need the recorded test outcome for "COc1cccc2c1C(=O)c1c(O)c3c(c(O)c1C2=O)C[C@@](O)(C(=O)CO)C[C@@H]3O[C@H]1C[C@H](N)[C@H](O)[C@H](C)O1" , thank you. active

----------
# System: ATS189
# experiment-notes: qHTS profiling for inhibitors of Plasmodium falciparum proliferation (AID 504749); note: nearly all actives have a fitted effect of over 60% in size
# assay-context: P. falciparum in erythrocytes, SYBR Green DNA, 72 h; series mostly up to 28.7 µM
# Protocol: NIH National Institute of Allergy and Infectious Diseases [NIAID] NIH Chemical Genomics Center [NCGC] […] Because mature erythrocytes lack DNA, only Plasmodium-derived DNA is detected. NCGC Assay Protocol Summary: The SYBR Green viability assay was adapted from a method described previously (Plouffe et al., 2008). […] The following morning, fluorescence intensity at 485(14) nm excitation and 535(25) nm emission wavelengths was measured on an EnVision (Perkin Elmer) plate reader. […]
Inconclusive results are not listed. Active and inactive are the calls of the source. The call rests on the fitted dose curve; in most records, active means well fitted inhibition curve with a large enough effect; inconclusive means small, poorly fitted or top-dose-only effect; inactive means flat fitted curve, though single readings scatter.
A correct response names exactly one class from active, inactive

Answered cases to consult:
Dear all, I need the recorded test outcome for "CC(C)COC(=O)c1ccc(N)cc1" , thank you. inactive

// next record "Cc1cc(O)c(C(C)C)cc1Cl" inactive

// next record "C[N+]1(CCCCC[N+]2(C)CCCC2)CCCC1" inactive

// next record "Oc1ccc(Cl)cc1Sc1cc(Cl)ccc1O" inactive

// next record COc1cc2c(cc1OC)C(C(C(=O)N(CCc1ccc(OC)c(OC)c1OC)CCc1ccc(OC)c(OC)c1OC)c1ccccc1)=NCC2 (configuration not stated) inactive

// next record "C[C@H](O)C(=O)Nc1c(I)c(C(=O)NC(CO)CO)c(I)c(C(=O)NC(CO)CO)c1I" inactive

// next record "CC(=O)Oc1ccc(C(=C2CCCCC2)c2ccc(OC(C)=O)cc2)cc1" inactive

// next record "Oc1ccc(O)cc1" inactive

More entries:
Dear all, I need the recorded test outcome for "NC(=NCCCCCCN=C(N)/N=C(\N)Nc1ccc(Cl)cc1)/N=C(\N)Nc1ccc(Cl)cc1" , thank you. active

// next record "CC(=O)N/N=C/c1ccc([N+](=O)[O-])o1" inactive

// next record "O=C(Nc1ccc(Cl)c(Cl)c1)C1CC1" inactive

// next record "Cc1cc(=O)n(-c2ccccc2)n1C" inactive

----------
# experiment-notes: qHTS of pediatric cancer cell lines to identify multiple opportunities for drug repurposing: Primary screen for OHS-50 cells (AID 1347103); note: nearly all actives have a fitted effect of over 40% in size
# assay-context: OHS-50 osteosarcoma viability, CellTiter-Glo luminescence, 48 h; series mostly up to 57.3 µM
Results filed as inconclusive are left out. Calls of active or inactive are those of the source. The call rests on the fitted dose curve; in most records, active means well fitted cell-killing curve with a large enough effect; inconclusive means small, poorly fitted or top-dose-only effect; inactive means no such curve, though single readings can be large or run the other way.
A correct response names exactly one class from active, inactive

Dear all, I need the recorded test outcome for "CN(C(=O)CN(CCO)CC(=O)N(C)C(C)(C)Cc1ccccc1)C(C)(C)Cc1ccccc1" , thank you. active
